measurement notes: Pharmacokinetic study in rat
Type: in vivo, Sprague − Dawley (SD) rats
experimental conditions: male, Sprague-Dawley; SD rat, iv, 5 mg/kg, plasma, n = 3, Mean ± SD
experimental endpoint: half-life

INPUT: Please look up its half-life: CCOc1ccccc1NC(=O)CSc1c[nH]c2ccc(OC)cc12 [4–49 C]
OUTPUT: 10 min

###

measurement notes: Pharmacokinetic study in rat
Format: in vivo, Sprague − Dawley (SD) rats
experimental conditions: male, Sprague-Dawley; SD rat, iv, 5 mg/kg, plasma, n = 3, Mean ± SD
experimental endpoint: k el (s⁻¹)
Answers are plain numbers, in s⁻¹.

INPUT: Please look up its k el: CCOc1ccccc1NC(=O)CSc1c[nH]c2ccc(OC)cc12 [4–49 C]
OUTPUT: 0.00119
